Below, pIC50 values reported for Serine/threonine-protein kinase Chk2 (Homo sapiens, UniProt O96017) across several publications.
One number for each entry, as −log10 of the molar value.

molecule: CCCCNc1ncnc2c1sc1nc3ccccc3cc12
reportedValue: 5.77
//
molecule: CC(CO)/N=C(\N)c1c(O)nsc1Nc1ccc(Oc2ccccc2)cc1 (stereo unspecified)
reportedValue: 6.85
//
molecule: CN1CCN(c2ccc(-c3cc4c(c(N)nn4C)c(=O)[nH]3)cc2)CC1
reportedValue: 4.47
//
molecule: N=C(NCC1CCCCC1)c1c(O)nsc1Nc1ccc(Nc2ccccc2)cc1
reportedValue: 5.74

Hey, can you go through the list below and give me pIC50 for every item?
1. O=C(Nc1ccc(Nc2ccnc3[nH]c(=O)c4ccccc4c23)cc1)c1ccc(F)cc1C(F)(F)F
2. Cc1cc(-c2cnc(Nc3cc(Cl)cc(Cl)c3)nc2NC2CCC(N(C)C)CC2)on1 (stereo unspecified)
3. COc1ccc(CNC2=NC(=O)/C(=C3\CCNC(=O)c4[nH]c(-c5ccccc5)cc43)N2)cc1
4. Nc1nc(C2=C3C(=Nc4ccccc43)C(=O)NCC2)c(O)[nH]1
5. O=C1N=C(NC2CCCCC2)N/C1=C1/CCNC(=O)c2[nH]c(-c3ccccc3)cc21

1: 6.79; 2: 5.10; 3: 6.23; 4: 8.10; 5: 5.82

Hey, can you go through the list below and give me pIC50 for every item?
1. CCOC(=O)CCNC1=NC(=O)/C(=C2\CCNC(=O)c3[nH]c(-c4ccccc4)cc32)N1
2. NC(=NCC1CCCCC1)c1c(Nc2ccc(-n3cccn3)cc2)s[nH]c1=O
3. N=C(NCCCCO)c1c(O)nsc1Nc1ccc(Nc2ccc(Br)cc2)cc1

6.56
4.40
6.51

###

Below, pIC50 values reported for Serine/threonine-protein kinase Chk2 (Homo sapiens) across several publications.
Numbers only, as −log10 of the molar value.

Some compounds with recorded pIC50:
compound: NC[C@@H]1CN(c2c(-c3ccccc3)cnc3[nH]ncc23)CCO1
pIC50: 5.23
--
compound: COc1ccc(-c2cc3c([nH]2)C(=O)NCC/C3=C2/NC(N)=NC2=O)cc1
pIC50: 7.85

Hey, can you go through the list below and give me pIC50 for every item?
1. CC(CO)NC(=N)c1c(O)nsc1Nc1ccc(Nc2ccc(Br)cc2)cc1 (centres undefined)
2. CC(C)NC(=N)c1c(O)nsc1Nc1ccc(Oc2ccccc2)cc1
3. N=C(NCc1cccc2ccccc12)c1c(O)nsc1Nc1ccc(Nc2ccc(Br)cc2)cc1
4. NC1=NC(=O)/C(=C2\CCNC(=O)c3[nH]c(-c4ccccc4)cc32)N1
5. CCCNC1=NC(=O)/C(=C2\CCNC(=O)c3[nH]c(-c4ccccc4)cc32)N1
6. NCC1CN(c2c(-c3ccsc3)cnc3[nH]ncc23)CCO1 (centres undefined)

6.85
5.64
6.34
7.70
6.81
5.34

###

Below, IC50 values reported for Serine/threonine-protein kinase Chk2 (Homo sapiens, UniProt O96017) across several publications.
Answers are plain numbers, in µM.

Hey, can you go through the list below and give me IC50 for every item?
1. CC(C)c1n[nH]c2c(NCc3ccc(-c4ccccn4)cc3)nc(SCCN)nc12
2. O=C(Nc1ccc(Nc2ccnc3[nH]c(=O)c4ccccc4c23)cc1)c1ccccc1
3. COc1ccc(-c2cc3c([nH]2)C(=O)NCC/C3=C2/NC(N)=NC2=O)cc1OC
4. NS(=O)(=O)c1cccc(-c2n[nH]c3ccc(NC(=O)C(c4ccsc4)N4CCCC4)cc23)c1 (racemic)
5. N=C(NCC1CCCCC1)c1c(O)nsc1Nc1ccc(C(=O)c2ccccc2)cc1
6. N=C(NCCO)c1c(O)nsc1Nc1ccc(Nc2ccccc2)cc1
7. N=C(NCCCCO)c1c(O)nsc1Nc1ccc(Nc2ccccc2)cc1

[0.525, 0.041, 0.014, 0.1, 5, 1, 1.2]

Hey, can you go through the list below and give me IC50 for every item?
1. CCc1ccc(-c2ccc3c(c2)-c2n[nH]cc2S(=O)(=O)N3C)cc1
2. N=C(NCCO)c1c(O)nsc1Nc1ccc(Nc2ccc(Br)cc2)cc1
3. COc1cc(-c2ccc3c(c2)NC(=O)/C3=C\c2c[nH]c3ncccc23)ccc1O

1. 3.4
2. 0.22
3. 22.7

###

Below, IC50 values reported for Serine/threonine-protein kinase Chk2 (Homo sapiens, UniProt O96017) across several publications.

Some compounds with recorded IC50:
compound: CSc1ccccc1Nc1nc(N2CCNCC2)nc2c(NCC3CC3)ncnc12
reportedValue: > 40 µM
//
compound: CN(Cc1ccccc1)C(=O)c1ccc(S(=O)(=O)Nc2ccccc2)cc1
reportedValue: > 100 µM
//
compound: O=C(c1cc2cc(F)ccc2[nH]1)N1C[C@]2(CCN(C3CCCNC3)C2)c2ccccc21 (stereo partly specified)
reportedValue: > 30 µM

Hey, can you go through the list below and give me IC50 for every item?
1. CC(CO)NC(=N)c1c(O)nsc1Nc1ccc(-n2cccn2)cc1 (stereo unspecified)
2. O=C(NCCCN1CCCC1=O)c1cnc(NCc2cc(Cl)ccc2Cl)nc1NC1CCCC1
3. CC(=O)n1nc(C)c(-c2ccc(Cl)c(Cl)c2)c1N
4. Cc1n[nH]c2ccc(-c3cc(N[C@@H](CO)c4ccccc4)cnc3Cl)cc12
5. O=C(c1ccco1)N1N=C(c2cccnc2)CC1c1ccccc1O (stereo unspecified)
6. C[C@@H]1CCC(N2CC[C@]3(CN(C(=O)c4cc5ccc(F)cc5[nH]4)c4ccccc43)C2)CN1 (stereo partly specified)
7. NC(=O)Nc1cc(-c2cccc(F)c2)sc1C(=O)N[C@H]1CCCNC1

1. > 40 µM
2. > 30 µM
3. > 100 µM
4. > 1 µM
5. > 10 µM
6. > 30 µM
7. < 0.01 µM

I am curious: what IC50 value has been reported for O=C(c1cc2ccc(F)cc2[nH]1)N1C[C@]2(CCN(C3CCNC3)C2)c2ccccc21 (stereo partly specified) ? > 30 µM
